biological target: T1, human SIRPβ1 extracellular domain + His-tag (NP_006056.2) (human, UniProt O00241 30-371); test: SPR, Ab captured, ECD-His analyte
T1 construct: also called hSIRPβ1; HuSIRPβ1
T1 sequence (O00241 other isoform, or with tags, fused parts or gaps): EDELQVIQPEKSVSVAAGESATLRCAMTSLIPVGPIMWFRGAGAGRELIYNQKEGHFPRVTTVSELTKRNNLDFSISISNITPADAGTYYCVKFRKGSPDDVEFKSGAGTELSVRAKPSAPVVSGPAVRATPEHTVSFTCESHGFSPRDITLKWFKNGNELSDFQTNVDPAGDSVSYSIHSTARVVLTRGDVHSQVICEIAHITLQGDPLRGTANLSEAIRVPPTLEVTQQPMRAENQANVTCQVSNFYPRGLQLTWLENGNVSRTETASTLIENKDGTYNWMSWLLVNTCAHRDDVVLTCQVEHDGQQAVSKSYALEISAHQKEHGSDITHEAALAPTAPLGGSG
RECORDED ENDPOINT: Kd (nM)
Answer in nM, number only, no unit symbol.

Documented Kd of Antibody A13 (antibody, human IgG1, kappa, L234A L235A, V domains shown) VH: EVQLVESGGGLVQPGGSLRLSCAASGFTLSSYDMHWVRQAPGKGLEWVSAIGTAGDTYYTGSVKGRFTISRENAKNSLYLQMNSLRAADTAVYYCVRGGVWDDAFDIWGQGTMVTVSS VL: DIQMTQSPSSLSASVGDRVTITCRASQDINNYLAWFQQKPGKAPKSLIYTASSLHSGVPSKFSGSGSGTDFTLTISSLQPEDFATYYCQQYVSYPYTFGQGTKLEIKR : 61

Documented Kd of Antibody A9 (antibody, human IgG1, kappa, L234A L235A, V domains shown) VH: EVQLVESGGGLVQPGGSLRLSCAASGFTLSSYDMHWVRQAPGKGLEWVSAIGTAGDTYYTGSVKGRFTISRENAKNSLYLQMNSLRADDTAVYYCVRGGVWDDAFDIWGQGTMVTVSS VL: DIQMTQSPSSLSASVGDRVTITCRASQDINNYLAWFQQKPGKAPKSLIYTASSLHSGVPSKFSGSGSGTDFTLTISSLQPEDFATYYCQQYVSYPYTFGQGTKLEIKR : 58.8
